molecular target: SFTSV CBD (cap-binding domain of SFTSV L protein) (Severe fever with thrombocytopenia syndrome virus)
Sequence (I0DF35 1695-1810 limits assumed): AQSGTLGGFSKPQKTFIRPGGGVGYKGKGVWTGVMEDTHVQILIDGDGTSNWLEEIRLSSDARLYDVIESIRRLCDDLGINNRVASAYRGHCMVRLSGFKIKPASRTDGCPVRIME
ENDPOINT_LABEL: Kd

# Kd of "C[n+]1cn([C@@H]2O[C@H](COP(=O)(O)OP(=O)(O)OP(=O)(O)O)[C@@H](O)[C@H]2O)c2nc(N)[nH]c(=O)c21" = ~138 µM
